# Test system: RAW-Dual
# EXPERIMENTAL PROTOCOL: NF-kB SEAP reporter activity, fold change vs agonist alone; cytotoxicity flag (confluency mask): not cytotoxic; higher = enhanced NF-kB activity
# CONDITION SUMMARY: agonist: Pam2CSK4 (TLR2/6) 0.1 ug/mL
Whole data set: some 2,900 compounds, median “NF-kB SEAP reporter activity, fold change vs agonist alone” near 0.99, cut for the highest 2% near 2.6. Shown is part of a subset that was picked to be rich in the highest values.
REPORTED METRIC: NF-kB SEAP reporter activity
The response must contain the number and no unit.

// known answers, use as guide
{"columns": ["COMPOUND", "NF-kB SEAP reporter activity"],
 "data": [
  ["CC(C)CN(CC(O)C(Cc1ccccc1)NC(=O)OC1COC2OCCC12)S(=O)(=O)c1ccc(N)cc1.CCO (stereo unspecified) (library stock concentration (final ~1000-fold dilution): 10 mM)", 1.42],
  ["Cc1cc(C)c(CN2CCc3c(Cl)cc(-c4c(C)noc4C)c(Cl)c3C2=O)c(=O)[nH]1 (library stock concentration (final ~1000-fold dilution): 10 mM)", 0.917]
]}

*Q* May I ask what NF-kB SEAP reporter activity has been recorded for O=C(CCCCCCCC(=O)NCCO)NCCO (library stock concentration (final ~1000-fold dilution): 10 mM) ?
*A* 0.991
